# Tested on: OVCAR-5 ovarian
# protocol: NCI tumour cell line growth inhibition, 48 h
Where a SMILES comes first, the peptide text is derived from it. [ ]: non-standard residue; d: D form. 2Nal = N[CH](Cc1ccc2ccccc2c1)C(=O)O
metric_name: TGI

Previously resolved entries follow.
- compound: "Cn1c(-c2ccc(N=NNc3ccc(-c4n[nH]c(=S)n4C)cc3)cc2)n[nH]c1=S"
  tested_system: "OVCAR-5 ovarian"
  TGI: "> 100 µM"
- compound: "CC(=O)Nc1ccc2cc3[nH]c4cc(NC(C)=O)ccc4c3nc2c1"
  tested_system: "OVCAR-5 ovarian"
  TGI: "> 100 µM"
- compound: "O=C(O)CCSC(=O)Nc1ccccc1Cl"
  tested_system: "OVCAR-5 ovarian"
  TGI: "> 100 µM"

-- ask State its TGI for this compound: CC(=O)C1CCC2C3CC=C4CC(SC(=N)N)CCC4(C)C3CCC12C (configuration not stated)
-- reply 8.87 µM

-- ask Provide TGI value for the following compound: CC(C)C(NC(=O)C(CCCCN)NC(=O)C(Cc1c[nH]c2ccccc12)NC(=O)C(Cc1ccc(O)cc1)NC(=O)C(CS)NC(=O)C(N)Cc1ccc2ccccc2c1)C(=O)NC(CS)C(=O)NC(C(N)=O)C(C)O (configuration not stated) (H-[2Nal]CYWKVCT-NH2; configuration not given here)
-- reply > 12.5 µM

-- ask Return TGI (reported value) for this compound: O=c1[nH]c(=O)n(C/C=C/CBr)nc1Br
-- reply 31.1 µM

-- ask Report TGI for COC(=O)C1=C(O)[C@H](C(=O)OC)[C@]2(O)[C@@H](C(=O)OC)[C@H]1C[C@@H](c1ccc(OC(=O)/C=C/c3ccco3)cc1)[C@@H]2C(=O)OC
-- reply 43.3 µM

-- ask Dear colleague, please send me the reported TGI for C[C@]12CC/C(=N\OCCN3CCCCC3)C=C1CCC1C2CC[C@@]2(C)C1CC[C@]2(C)O (some centres not stated) when you can.
-- reply 94.4 µM

-- ask State its TGI: [O-][n+]1c(-c2ccccc2)c2nc3ccccc3nc2c2ccccc21
-- reply > 100 µM

-- ask Return TGI (reported value) for this compound: CN(C)c1ccc(C(=NN)c2ccc(N(C)C)cc2)cc1
-- reply > 100 µM

-- ask Find the measured TGI of COc1cc(/C=C\c2ccc(OC(C)=O)cc2)cc(OC)c1OC and report it.
-- reply > 100 µM

-- ask // Input: COC1(CC[C@H](C)COC2OC(CO)C(O)C(O)C2O)O[C@H]2C[C@H]3[C@@H]4CC=C5C[C@@H](OC6OC(CO)C(O)C(OC7OC(CO)C(O)C(O)C7O)C6OC6OC(C)C(O)C(O)C6O)CC[C@]5(C)[C@H]4CC[C@]3(C)[C@H]2[C@@H]1C (some centres not stated) . Output its TGI only.
-- reply > 32.5 µM
